- Tested on: Cryptococcus neoformans H99 ATCC 208821 type strain
- Procedure details: Antifungal MIC assay
- Type: cell-based
- Measurement conditions: extended panel, second batch; ≥80 or ≥50% inhibition
Measured metric: MIC Cryptococcus neoformans ATCC 208821

CC(=NN=C(N)[S-])C(C)=NN=C(N)[S-].O=[N+]([O-])[O-].[Co+3].c1c[nH]cn1.c1c[nH]cn1 yielded MIC Cryptococcus neoformans ATCC 208821 of 0.39 to 0.78 µM

Memo: Cc1c(C)c(C)[c-](C)c1C.Cc1c(C)c(C)[c-](C)c1C.[Cl-].[Cl-].[Cl-].[Cl-].[Rh+3].[Rh+3] , reported MIC Cryptococcus neoformans ATCC 208821: 0.195 to 0.391 µM

Looking up c1cnc([S][Au][PH](c2ccco2)(c2ccco2)c2ccco2)nc1 , I found its MIC Cryptococcus neoformans ATCC 208821 recorded as 0.098 to 0.195 µM

The reported MIC Cryptococcus neoformans ATCC 208821 of the molecule Cc1c(C)c(-c2ccc(-c3ccccc3)cc2)[c-](C)c1C.Cc1ccccc1NC1=[NH+][Ir]([Cl])[NH]C(NS(=O)(=O)c2ccc([N+](=O)[O-])cc2)=N1 was 0.024 to 0.049 µM

Field MIC Cryptococcus neoformans ATCC 208821 (entry c1ccc([PH]([Au][S]c2ccccn2)(c2ccccc2)c2ccccc2)cc1 ) reads 0.024 to 0.195 µM

In plain terms, CC(C)C([O][Pt][Cl])C1=CCCC=CCC1 (stereo not drawn) has a documented MIC Cryptococcus neoformans ATCC 208821 of ≤0.78 to 1.56 µM

O=C([O][Ag])c1ccc(N2N=C(/C=C/C=C/c3ccccc3)CC2/C=C/c2ccccc2)cc1.O=C([O][Ag])c1ccc(N2N=C(/C=C/C=C/c3ccccc3)CC2/C=C/c2ccccc2)cc1 (racemic) has a reported MIC Cryptococcus neoformans ATCC 208821 of ≤0.006 to 0.098 µM

Quick note, MIC Cryptococcus neoformans ATCC 208821 for C1=CCCC=CCC1.[I][Pt][I] landed at 1.56 to 3.13 µM

Lab note: C1=CCCC=CCC1.[Cl][Pt][Cl] gave MIC Cryptococcus neoformans ATCC 208821 of 1.56 to 3.13 µM

----------
- Test system: HEK-293 human embryonic kidney cells ATCC CRL-1573
- Measurement conditions: initial CO-ADD screening, 20 h
Measured metric: HEK CC50

Worked set:
The value of HEK CC50 measured for the molecule Cc1cccc(C2(c3ccccc3)[C]([Au-][Cl])=C(c3ccccc3)c3cccc(C)[n+]32)n1 (stereo not drawn) turned out to be 0.7 µg/mL

In plain terms, Cc1cccc(C(=C=C(c2cccc(C)n2)C(C)(C)C)c2ccccc2)n1.[Cl][Pt]([Cl])([Cl])[Cl] has a documented HEK CC50 of > 32 µg/mL

Record COc1ccc(/C=C/C2=NN(c3ccc(C(=O)[O][Ag])cc3)C(c3ccc(OC)c(OC)c3)C2)cc1OC.COc1ccc(/C=C/C2=NN(c3ccc(C(=O)[O][Ag])cc3)C(c3ccc(OC)c(OC)c3)C2)cc1OC (racemic) . Reported HEK CC50: >32 µg/mL

Others:
get_value(item= O=C([O][Ag])c1ccc(N2N=C(/C=C/C=C/c3ccccc3)CC2/C=C/c2ccccc2)cc1.O=C([O][Ag])c1ccc(N2N=C(/C=C/C=C/c3ccccc3)CC2/C=C/c2ccccc2)cc1 (racemic) , readout=HEK CC50) returns >32 µg/mL

Record Cc1cccc2[n+]1[Au-]([Cl])([Cl])[n+]1c(C)cccc1C(C(C)(C)C)=C=C2c1ccccc1.[Cl-] , field HEK CC50: > 32 µg/mL

What the record says about c1ccc([PH]([Au][S]c2ccccn2)(c2ccccc2)c2ccccc2)cc1 : HEK CC50 is >32 µg/mL

----------
- System: Candida auris CBS12373 KCTC 17810
- Procedure details: Antifungal MIC assay, extended panel
- Assay type: cell-based
- Measurement conditions: extended panel, second batch; ≥80 or ≥50% inhibition; read-out: MIC* Candida auris CBS12373
Measured metric: log10 of MIC (log10 of the value in µM)
Log10 applied to MIC; unit prior to transform: µM.

log10 of MIC in this record for Cc1ccc2ccc3ccc(C)nc3c2n1.Cc1ccc2ccc3ccc(C)nc3c2n1.O=C([O][Eu]([O]C(=O)c1ccccc1F)[O]C(=O)c1ccccc1F)c1ccccc1F : -2.22

Continuing:
Cc1c(C)c(-c2ccc(-c3ccccc3)cc2)[c-](C)c1C.Cc1ccccc1NC1=[NH+][Ir]([Cl])[NH]C(NS(=O)(=O)c2ccc([N+](=O)[O-])cc2)=N1 has a reported log10 of MIC of -1.62

# molecule C1=CCCC=CCC1.[Cl][Pt][Cl] ; its log10 of MIC = 0.50

Looking up Cc1c(C)c(C)[c-](C)c1C.Cc1c(C)c(C)[c-](C)c1C.[Cl-].[Cl-].[Cl-].[Cl-].[Rh+3].[Rh+3] , I found its log10 of MIC recorded as -0.11

Record summary for c1ccc([PH]([Au][S]c2ccccn2)(c2ccccc2)c2ccccc2)cc1 : reported log10 of MIC = -0.71

----------
Form field: MIC Ab (one value per entry).
- Test system: Acinetobacter baumannii ATCC 19606 type strain
- Procedure details: CO-ADD antibacterial MIC assay
- Assay type: cell-based
- Measurement conditions: initial CO-ADD dose-response screening; ≥80% growth inhibition

# MIC Ab (compound: CC(C)C([O][Pt][Cl])C1=CCCC=CCC1 (stereo not shown) ) is >20 µM

Now turn to the next compound.
Value of measured MIC Ab for the entry Cc1c(C)c(C)[c-](C)c1C.Cc1c(C)c(C)[c-](C)c1C.[Cl-].[Cl-].[Cl-].[Cl-].[Rh+3].[Rh+3] : >32 µg/mL

----------
- Test system: Cryptococcus deuterogattii CBS7750 VGII; Serotype B
- Procedure details: Antifungal MIC assay, extended panel
- Type: cell-based
- Measurement conditions: extended panel, second batch; ≥80 or ≥50% inhibition
Measured metric: log10 MIC (log10 of the value in µM)
On a log10 scale: recorded MIC, unit µM.

Worked examples follow.
Summary for this molecule, c1ccc([PH]([Au][S]c2ccccn2)(c2ccccc2)c2ccccc2)cc1 : log10 MIC is -1.01

Noted for CC(=NN=C(N)[S-])C(C)=NN=C(N)[S-].O=[N+]([O-])[O-].[Co+3].c1c[nH]cn1.c1c[nH]cn1 : its log10 MIC reads 0.19

Memo: COc1ccc(/C=C/C2=NN(c3ccc(C(=O)[O][Ag])cc3)C(c3ccc(OC)c(OC)c3)C2)cc1OC.COc1ccc(/C=C/C2=NN(c3ccc(C(=O)[O][Ag])cc3)C(c3ccc(OC)c(OC)c3)C2)cc1OC (racemic) , reported log10 MIC: -2.22

Entry CS(=O)(=O)[O][Pd][c]1ccccc1-c1ccccc1N.CS(=O)(=O)[O][Pd][c]1ccccc1-c1ccccc1N ; log10 MIC = -1.01

Lab note: Cc1c(C)c(-c2ccc(-c3ccccc3)cc2)[c-](C)c1C.Cc1ccccc1NC1=[NH+][Ir]([Cl])[NH]C(NS(=O)(=O)c2ccc([N+](=O)[O-])cc2)=N1 gave log10 MIC of -1.62

Further cases:
// recorded log10 MIC for Cc1c(C)c(C)[c-](C)c1C.Cc1c(C)c(C)[c-](C)c1C.[Cl-].[Cl-].[Cl-].[Cl-].[Rh+3].[Rh+3] : -0.41

----------
- System: Candida auris CBS12373 KCTC 17810
- Procedure details: Antifungal MIC assay, extended panel
- Assay type: cell-based
- Measurement conditions: Candidozyma auris; comparator antifungals; MIC = ≥80% inhibition; read-out: MIC* Candida auris CBS12373
Starred links: 1 amine or outer side, 2 acyl side, 3 side chain; linkers in the order of their positions; H or OH if unused. Positions of bridges follow the written chain, without caps; N, C: chain ends. Non-standard residues stand in square brackets, D forms with d. Residues, ends and D or L forms follow the SMILES beside them. *: point of attachment. pTerphenylCO(4''-OnC5H11) = CCCCCOc1ccc(-c2ccc(-c3ccc(C(=O)*)cc3)cc2)cc1; Orn(4R-OH,5R-OH) = O=C([C@H](C[C@@H](O)[C@@H](O)N[*:3])N[*:1])[*:2]; hTyr(3S-OH,4S-OH) = N[C@H](C(=O)O)[C@H](O)[C@@H](O)c1ccc(O)cc1; Pro(3S-OH,4S-Me) = C[C@H]1CN[C@H](C(=O)O)[C@H]1O; Hyp = O=C(O)[C@@H]1C[C@@H](O)CN1
Measured metric: MIC (µg/mL)
The figure you give is taken to be in µg/mL; do not add the unit.

Value of measured MIC for the entry CCCCCOc1ccc(-c2ccc(-c3ccc(C(=O)N[C@H]4C[C@@H](O)[C@@H](O)NC(=O)[C@@H]5[C@@H](O)[C@@H](C)CN5C(=O)[C@H]([C@@H](C)O)NC(=O)[C@H]([C@H](O)[C@@H](O)c5ccc(O)cc5)NC(=O)[C@@H]5C[C@@H](O)CN5C(=O)[C@H]([C@@H](C)O)NC4=O)cc3)cc2)cc1 [Anidulafungin, reference compound] ({pTerphenylCO(4''-OnC5H11)}-[Orn(4R-OH,5R-OH)]T[Hyp][hTyr(3S-OH,4S-OH)]T[Pro(3S-OH,4S-Me)]; lactam 1-C) : 0.25

---
// MIC lookup, compound = CC[C@H](C)C[C@H](C)CCCCCCCCC(=O)N[C@H]1C[C@@H](O)[C@@H](NCCN)NC(=O)[C@@H]2[C@@H](O)CCN2C(=O)[C@H]([C@H](O)CCN)NC(=O)[C@H]([C@H](O)[C@@H](O)c2ccc(O)cc2)NC(=O)[C@@H]2C[C@@H](O)CN2C(=O)[C@H]([C@@H](C)O)NC1=O [Caspofungin, reference compound] , result: 12.5
